Sourced from the RNAGym collection of RNA variant scans (doi:10.1021/acssynbio.7b00057)

What aptazyme ON/OFF ratio was measured for each of the following?
B1: Pistol ribozyme (parent)
chain: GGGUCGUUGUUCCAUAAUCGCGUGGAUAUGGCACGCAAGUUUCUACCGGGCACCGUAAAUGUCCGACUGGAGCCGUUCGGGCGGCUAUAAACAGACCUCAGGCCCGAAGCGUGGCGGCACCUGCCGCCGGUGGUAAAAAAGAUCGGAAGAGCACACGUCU

Variants of: B1
Test details: aptazyme ON/OFF ratio, guanine; higher = stronger switching; co-transcriptional cleavage with and without guanine
Give the figure only, with no unit attached.

Task: Quick check: aptazyme ON/OFF ratio of U7A U8G G9U U10A C13U ?
Output: 1.23

Task: So what does the record say about aptazyme ON/OFF ratio for U7G U10G C12U C13G ?
Output: 1.24

Task: What does the record list as aptazyme ON/OFF ratio for U7C U8G G9C U11G C12G C13U ?
Output: 1.09

Task: // returns reported aptazyme ON/OFF ratio for input U8A U10A U11G C12U
Output: 1.52

Task: Which measured aptazyme ON/OFF ratio value corresponds to U8G G9U U10A U11C C12U C13A ?
Output: 1.08

Task: Name the recorded aptazyme ON/OFF ratio for U7C U8G G9C U10C U11A C12U .
Output: 1.09

Task: aptazyme ON/OFF ratio for U7C U8G G9A U10G U11A C12A C13A ?
Output: 1.18

Task: Requested read-out: aptazyme ON/OFF ratio. Entry: U7G U8A U10C U11G C12G C13U
Output: 1.05

Task: Look up aptazyme ON/OFF ratio for this variant: U8G U10G C12U C13G
Output: 1.18

Task: Fill in the blank: the reported aptazyme ON/OFF ratio of U7A U8G G9A U10G U11A C12A is ____.
Output: 1.28

Task: Any idea what its aptazyme ON/OFF ratio is? The variant is U7G U8C U11C C13G
Output: 1.07

Task: Given U8C G9U U10G U11A C12U C13U , state its recorded aptazyme ON/OFF ratio.
Output: 1.31

Task: // lookup aptazyme ON/OFF ratio for U7C U8C U10G U11C C12A
Output: 1.41

Task: I am curious: what aptazyme ON/OFF ratio value has been reported for U7A G9C U11C C12G C13G ?
Output: 1.09

Task: Given the entry U7A U8A G9U C12A C13G , report its measured aptazyme ON/OFF ratio.
Output: 1.25

Task: Give the measured aptazyme ON/OFF ratio of U7G U8C G9C U10A U11G C12G .
Output: 1.17

Task: Consider the variant U7A U8A G9C U10C C13U and give its measured aptazyme ON/OFF ratio.
Output: 1.12

Task: Param item = U7G G9C U10G U11A C12A C13G ; retrieve measured aptazyme ON/OFF ratio.
Output: 1.12

Task: Record request: aptazyme ON/OFF ratio value, item U8G U10A U11A C13A
Output: 1.2

Task: Dear colleague, I am looking for the recorded aptazyme ON/OFF ratio of the following variant: U8C G9A U10C
Output: 3.49

Task: Entry U7G U8C G9A U10G U11A C13U has what aptazyme ON/OFF ratio?
Output: 1.05

Task: Can you share its aptazyme ON/OFF ratio? I mean this variant: U7G U8G U10G U11G C12A
Output: 1.23

Task: # input variant: G9C U10C U11G C12A C13G ; wanted: its aptazyme ON/OFF ratio
Output: 1.03

Task: Please look up its aptazyme ON/OFF ratio: U7A U8A G9U U10G U11G
Output: 1.09

Task: Record request: aptazyme ON/OFF ratio value, item U7A U8C U10C C12G C13U
Output: 1.41

Task: Bench note: what aptazyme ON/OFF ratio did U7A U8G G9A U10C U11G C12U C13A show?
Output: 1.21

Task: Name the reported aptazyme ON/OFF ratio value associated with the variant U7A U8G U11A C12A C13U
Output: 1.07

Task: Requested read-out: aptazyme ON/OFF ratio. Entry: U7C U8A U10A U11A C12G C13G
Output: 1.31

Task: Record request: aptazyme ON/OFF ratio value, item U7A U8C G9U U10G C12G C13G
Output: 1.14

Task: Fill in: aptazyme ON/OFF ratio of U7C U8G G9U U10C U11A C12G C13U is ___
Output: 1.2

Task: Please give the measured aptazyme ON/OFF ratio for this variant: U7A G9C U10G C12G C13U
Output: 1.1

Task: Data request, read-out aptazyme ON/OFF ratio, for U7G G9U U10G U11A
Output: 1.23

Task: Look up aptazyme ON/OFF ratio for this variant: U7C U8G G9U U10A C12A C13U
Output: 1.22

Task: Param item = U7C U8G G9A U11C C12U C13A ; retrieve measured aptazyme ON/OFF ratio.
Output: 1.09

Task: Tell me the measured aptazyme ON/OFF ratio of U7G U8C G9C U10A U11G C12G C13U , please.
Output: 1.1

Task: Any idea what aptazyme ON/OFF ratio was measured for U7A U8C G9U U10A C12A C13G ?
Output: 1.15

Task: Please report the recorded aptazyme ON/OFF ratio for U7G G9C C12G C13G .
Output: 1.26

Task: Dear colleague, I am looking for the recorded aptazyme ON/OFF ratio of the following variant: U7C U8C U10A U11G C13G
Output: 1.18

Task: May I ask what aptazyme ON/OFF ratio has been recorded for U8G G9U U10A U11C C12G C13U ?
Output: 1.11

Task: Using the record for U7A U8C G9A U10A U11G C12G C13A , report its aptazyme ON/OFF ratio.
Output: 1.11

Task: What value of aptazyme ON/OFF ratio has been recorded for this entry: G9U U10A C13A
Output: 1.27

Task: What value of aptazyme ON/OFF ratio has been reported for the following variant? U10A C12A
Output: 1.62

Task: Would you mind telling me what aptazyme ON/OFF ratio value was observed for U7G G9A U10C U11A C12A ?
Output: 1.1

Task: I'd like to know its aptazyme ON/OFF ratio. The variant in question is U7A G9C U10A U11G C12A C13A
Output: 1.11

Task: What measured aptazyme ON/OFF ratio goes with U7G U8G G9U U10A U11C C12G ?
Output: 1.19

Task: Can you look up the measured aptazyme ON/OFF ratio of U7C U8A U10G U11C C12G for me?
Output: 1.53

Task: I would be grateful if you could share the reported aptazyme ON/OFF ratio for U7C U8C U10G C12G C13G .
Output: 1.11

Task: I would be grateful if you could share the reported aptazyme ON/OFF ratio for U7G U8G G9C U10G U11G C12A C13G .
Output: 1.15

Task: Could you share which aptazyme ON/OFF ratio value was measured for U7A U8A G9U U11C C12A C13U ?
Output: 1.17

Task: For U7A U8G G9C U11C C13G , what is its reported aptazyme ON/OFF ratio?
Output: 1.1

Task: # input variant: U7C G9C U10A U11C C12A C13G ; wanted: its aptazyme ON/OFF ratio
Output: 1.07

Task: Recorded aptazyme ON/OFF ratio for U8C U10A U11G C12U C13G , please?
Output: 1.22

Task: May I ask what aptazyme ON/OFF ratio has been recorded for U8C G9U U11A C12U ?
Output: 1.39

Task: Record request: aptazyme ON/OFF ratio value, item U7C U8C G9C U10C C12G C13G
Output: 1.04

Task: State the recorded aptazyme ON/OFF ratio for this entry: U7A U8G G9C U10A U11A C12U C13U
Output: 1.57

Task: Looking for the measured aptazyme ON/OFF ratio of U7C U8C G9U C12G C13A , can you help?
Output: 1.21

Task: Param item = U8C U10C C12G C13G ; retrieve measured aptazyme ON/OFF ratio.
Output: 1.29

Task: # query: aptazyme ON/OFF ratio of entry U8G U10C U11G C12U
Output: 1.33

Task: Find the recorded aptazyme ON/OFF ratio belonging to U7C G9A U10C U11G C12A C13G and report it.
Output: 1.15

Task: Quick one: aptazyme ON/OFF ratio of U8G U10C U11G C12U C13A ?
Output: 1.14

Task: State the recorded aptazyme ON/OFF ratio for this entry: U7A U8G U10A U11C C12G
Output: 1.15

Task: State the recorded aptazyme ON/OFF ratio for this entry: U7C U8A G9C U10A C12A C13G
Output: 1.14

Task: Data request, read-out aptazyme ON/OFF ratio, for U7A U8G G9A U10A C12A C13G
Output: 1.06

Task: Given the variant G9A U10C U11A C12G , what is its reported aptazyme ON/OFF ratio?
Output: 1.48

Task: Param item = U7A U8G G9A U10A U11G C13G ; retrieve measured aptazyme ON/OFF ratio.
Output: 1.27

Task: Which aptazyme ON/OFF ratio reading was recorded for the variant U7C U8G G9A U10G U11C C13A ?
Output: 1.11

Task: Give its aptazyme ON/OFF ratio value. Item: U7A U8C G9U U10G U11A C12U
Output: 1

Task: Looking for the measured aptazyme ON/OFF ratio of U7G U8A G9C U10C U11C C12U C13G , can you help?
Output: 1.04

Task: Name the recorded aptazyme ON/OFF ratio for U7A U8G G9A U11A C12A C13G .
Output: 1.21

Task: Quick one: aptazyme ON/OFF ratio for U7C U8C U10C U11G C12A ?
Output: 1.38

Task: Which aptazyme ON/OFF ratio is listed for U7C G9C U10G U11A C12G C13G ?
Output: 1.11

Task: Reported aptazyme ON/OFF ratio, variant U7C U8C G9C U10A U11G C12G C13G : ____
Output: 1.12

Task: Requested field: aptazyme ON/OFF ratio. Item: U7C G9U U10C U11G C12G C13G
Output: 1.11

Task: Which value of aptazyme ON/OFF ratio has been reported for U7A U8G G9U U10C U11C C12U C13A in the records?
Output: 1.14

Task: What measured aptazyme ON/OFF ratio goes with U8C G9C U10C U11A C12U C13G ?
Output: 1.02

Task: Endpoint output: aptazyme ON/OFF ratio of U7A U8G U10C C12A . Value?
Output: 1.33

Task: For U7G U8A U10A U11C C12G C13U , what is its reported aptazyme ON/OFF ratio?
Output: 1.18

Task: Given the entry U7C G9U U11C C12U C13A , report its measured aptazyme ON/OFF ratio.
Output: 1.12

Task: Can you share its aptazyme ON/OFF ratio? I mean this variant: U7C U8A G9U U10G U11A C12U C13A
Output: 1.12

Task: Fill blank: measured aptazyme ON/OFF ratio of the variant U7G U8G G9U U10C U11A C12U C13U is ____.
Output: 1.36

Task: Would you kindly share the measured aptazyme ON/OFF ratio for U7A U8G G9C U11C C13A ?
Output: 1.37

Task: # lookup: aptazyme ON/OFF ratio of U7A U11G C12A
Output: 1.16

Task: State the recorded aptazyme ON/OFF ratio for this entry: U7C G9C U10G
Output: 1.08

Task: Entry under review: U7C G9C U10A C12A C13A . Reported aptazyme ON/OFF ratio?
Output: 1.09

Task: What aptazyme ON/OFF ratio value was documented for this variant, U7G U8C U10A C13A ?
Output: 1.11

Task: May I ask what aptazyme ON/OFF ratio has been recorded for U7C U8C G9C U11A C12U C13G ?
Output: 1.16

Task: For the variant shown here, U8G G9A U10A U11A C12A C13A , give the reported aptazyme ON/OFF ratio.
Output: 1.21

Task: Bench note: what aptazyme ON/OFF ratio did U7G G9U U10G C12G C13G show?
Output: 1.2

Task: Could you tell me which aptazyme ON/OFF ratio is on file for U8C C12A C13A ?
Output: 1.24

Task: If you can, please state the reported aptazyme ON/OFF ratio value of U7G U8G G9U U10A U11C C13A .
Output: 1.11

Task: // aptazyme ON/OFF ratio lookup, key: U7C G9U U11C C12A C13G
Output: 1.07
